- method.notes: Inhibition of alpha-glucosidase (unknown origin)
- Set-up: species or system Homo sapiens
Reported IC50 values follow for various molecules
I only need the number, in µM, no unit after it.

Worked examples, 3 molecules total:
Fc1ccc(-c2cn3c(Cc4n[nH]c(=S)n4-c4cccc5ccccc45)csc3n2)cc1 = 4.54
O=C(NNS(=O)(=O)c1ccccc1Cl)c1ccc(-c2nnc(-c3ccc([N+](=O)[O-])cc3)o2)cc1 = 1.1
O=[N+]([O-])c1ccc(S(=O)(=O)Oc2ccc(/C=C/c3nc4ccccc4nc3O)cc2)cc1 = 32

INPUT: Using the record for COc1ccc(-c2coc3cc(OCC(=O)c4ccc(Cl)cc4)ccc3c2=O)cc1 , state its measured IC50.
OUTPUT: 6.3

INPUT: Using the record for CCOC(=O)CN1C(=O)/C(=N\NC(=O)c2ccc(Cl)cc2)c2ccccc21 , state its measured IC50.
OUTPUT: 14.5

FYI, the data here is from ChEMBL document CHEMBL5360534.
